- target: T1, human APJ receptor (human, UniProt P35414 1-380)
- T1 sequence (looked up): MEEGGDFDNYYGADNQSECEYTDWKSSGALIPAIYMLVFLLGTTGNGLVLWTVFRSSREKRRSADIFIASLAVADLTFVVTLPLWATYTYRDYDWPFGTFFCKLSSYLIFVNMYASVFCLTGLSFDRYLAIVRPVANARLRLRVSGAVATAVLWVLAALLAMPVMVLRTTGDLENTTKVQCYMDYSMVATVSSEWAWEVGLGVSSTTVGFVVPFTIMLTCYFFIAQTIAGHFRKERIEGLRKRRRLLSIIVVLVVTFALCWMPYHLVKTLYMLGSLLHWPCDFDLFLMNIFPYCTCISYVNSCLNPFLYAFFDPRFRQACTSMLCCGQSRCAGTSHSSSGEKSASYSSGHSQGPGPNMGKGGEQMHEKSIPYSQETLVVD
- procedureSummary: cell-based or functional assay
Starred links: 1 amine or outer side, 2 acyl side, 3 side chain; linkers in the order of their positions; H or OH if unused. Non-standard residues stand in square brackets, D forms with d. No end group written: not given here. Propanoyl(3-triazol-4-yl) = O=C(CCc1cn([*:1])nn1)[*:2]; dBip = N[C@H](Cc1ccc(-c2ccccc2)cc1)C(=O)O; Oic = O=C(O)[C@@H]1C[C@@H]2CCCC[C@@H]2N1; Phe(4-Cl) = N[C@@H](Cc1ccc(Cl)cc1)C(=O)O; dPhe(4-Cl) = N[C@H](Cc1ccc(Cl)cc1)C(=O)O; Phe(4-I) = N[C@@H](Cc1ccc(I)cc1)C(=O)O; NMeR = CN[C@@H](CCCNC(=N)N)C(=O)O; hArg = N=C(N)NCCCC[C@H](N)C(=O)O; Cha = N[C@@H](CC1CCCCC1)C(=O)O; NMeL = CN[C@@H](CC(C)C)C(=O)O; NMeV = CN[C@H](C(=O)O)C(C)C; αMeP = C[C@@]1(C(=O)O)CCCN1; code O = not defined here; Nle = CCCC[C@H](N)C(=O)O; Orn = NCCC[C@H](N)C(=O)O; BLeu = β-leucine; βAla = NCCC(=O)O; Sar = CNCC(=O)O
What EC50 Human APJ Receptor was measured for each of the following?

{"binder": "Ac-[Orn]F[hArg][hArg]Q[hArg]P[hArg][BLeu]SHKG[Oic][Nle]P[Phe(4-Cl)]-OH [apelin polypeptide SEQ ID NO: 30]", "endpointLabel": "EC50 Human APJ Receptor", "measValue": "0.166 nM"}
{"binder": "[Orn]F[hArg][hArg]Q[hArg]P[hArg][Cha]S[NMeV]KG[Oic][Nle]P[Phe(4-Cl)] [apelin polypeptide SEQ ID NO: 679]", "endpointLabel": "EC50 Human APJ Receptor", "measValue": "3.63 nM"}
{"binder": "[Orn]F[hArg][hArg]Q[hArg]P[hArg][Cha]SHKG[βAla][Nle]P[Phe(4-Cl)] [apelin polypeptide SEQ ID NO: 705]", "endpointLabel": "EC50 Human APJ Receptor", "measValue": "3.48 nM"}
{"binder": "[Orn]F[hArg][hArg]Q[hArg]P[hArg][Cha][Sar]HKG[Oic][Nle]P[Phe(4-Cl)] [apelin polypeptide SEQ ID NO: 678]", "endpointLabel": "EC50 Human APJ Receptor", "measValue": "0.664 nM"}
{"binder": "Ac-[Orn]F[hArg][hArg]Q[hArg]P[hArg][Cha]SHKG[Oic][Nle][αMeP][Phe(4-Cl)]-OH [apelin polypeptide SEQ ID NO: 37]", "endpointLabel": "EC50 Human APJ Receptor", "measValue": "0.0672 nM"}
{"binder": "Ac-[dQ][hArg]P[NMeR][Cha]SHKG[Oic][Nle]P[dPhe(4-Cl)]-OH (SMILES CCCC[C@H](NC(=O)[C@@H]1C[C@@H]2CCCC[C@@H]2N1C(=O)CNC(=O)[C@H](CCCCN)NC(=O)[C@H](Cc1c[nH]cn1)NC(=O)[C@H](CO)NC(=O)[C@H](CC1CCCCC1)NC(=O)[C@H](CCCNC(=N)N)N(C)C(=O)[C@@H]1CCCN1C(=O)[C@H](CCCCNC(=N)N)NC(=O)[C@@H](CCC(N)=O)NC(C)=O)C(=O)N1CCC[C@H]1C(=O)N[C@H](Cc1ccc(Cl)cc1)C(=O)O) [apelin polypeptide SEQ ID NO: 55]", "endpointLabel": "EC50 Human APJ Receptor", "measValue": "31.6 nM"}

Look up EC50 Human APJ Receptor for the entries below, preserving their order.
1. {20K‑mPEGReg-Propanoyl(3-triazol-4-yl)}-[hArg]RQ[hArg]PR[NMeL]SHKG[Oic][Phe(4-I)]P[dBip]-OH (also: 20 kDa PEG conjugate) [apelin polypeptide SEQ ID NO: 104]
2. [code O]F[hArg][NMeR]Q[NMeR]P[NMeR][Cha]SHKG[Oic][Nle]P[Phe(4-Cl)] (reading uncertain) [apelin polypeptide SEQ ID NO: 673]

OUT:
["18.9 nM", "1.34 nM"]
